Listed compounds paired with reported pEC50
System: Trypanosoma brucei
assay-method-text: Antitrypanosomal activity against Trypanosoma brucei Lister 427 bloodstream forms in presence of 10% FBS after 24 hrs by celltiter glo assay
Type: functional, organism-based
assay-setup: Lister 427, 24 h
pEC50: −log10 of the molar value.

[
  {
    "compound": "CCC(=O)CCCN1CCN(S(=O)(=O)c2ccccc2)C(c2ncc(-c3ccc4ccccc4c3)[nH]2)C1 (centres undefined)",
    "pEC50": 5.38
  },
  {
    "compound": "CCC(=O)CCCN1CCN(Cc2ccccc2)C(c2ncc(-c3ccc4ccccc4c3)[nH]2)C1 (centres undefined)",
    "pEC50": 5.76
  },
  {
    "compound": "COc1ccc2[nH]c(C)c(CC(=O)N3CCN(CCCC(C)O)CC3c3ncc(-c4ccc5ccccc5c4)[nH]3)c2c1 (centres undefined)",
    "pEC50": 7.89
  },
  {
    "compound": "COc1ccc2[nH]c(C)c(CC(=O)N3CCN(CCCC(N)=O)CC3c3ncc(-c4ccc5ccccc5c4)[nH]3)c2c1 (centres undefined)",
    "pEC50": 6.68
  }
]
